Measured rank of binding signal, listed per entry for reference.
systemName: Polyclonal antibody ab6982 (Abcam)
method: cyclic peptide microarray, hexon peptides
endpointLabel: rank of binding signal (rank)

{"substance": "IETPDTH (peptide)", "endpointLabel": "rank of binding signal", "assayResult": 45}
{"substance": "EDDDNED (peptide)", "endpointLabel": "rank of binding signal", "assayResult": 63}
{"substance": "TRYFSMW (peptide)", "endpointLabel": "rank of binding signal", "assayResult": 73}
{"substance": "EVDEQAE (peptide)", "endpointLabel": "rank of binding signal", "assayResult": 17}
{"substance": "DDNEDEV (peptide)", "endpointLabel": "rank of binding signal", "assayResult": 78}
